- Test system: VDCC
- run-description: VDCC inhibition: calcium entry (Fluo-4 fluorescence) after depolarization with 60 mM KCl in SH-SY5Y neuroblastoma cells
- Assay type: cell-based, human
- experimental-setup: compound at 10^−5, 10 min exposure
I'd appreciate it if you could supply % of calcium entry inhibition values for the items below.
Give bare numbers, in %.

Before answering, review these 2 worked examples.
| compound | units | % of calcium entry inhibition |
| --- | --- | --- |
| CCCOc1cc(OC)ccc1C(=O)NCCCOc1ccc(CCNC(=O)c2ccc(OC)cc2OCCC)cc1 | % | 86 |
| COc1ccc(C(=O)NCCCOc2ccc(CCNC(=O)c3ccc(OC)cc3OC)cc2)c(OC)c1 | % | 91.5 |

// for each compound in input: emit % of calcium entry inhibition
1. COc1ccc(C(=O)NCCCOc2ccc(CCNC(=O)c3ccc(OC)cc3OCC=C(C)C)cc2)c(OCC=C(C)C)c1
2. COc1ccc(C(=O)NCCCOc2ccc(CCNC(=O)c3ccc(OC)cc3OCC(C)=O)cc2)c(OCC(C)=O)c1
3. COCOc1cc(OC)ccc1C(=O)NCCCOc1ccc(CCNC(=O)c2ccc(OC)cc2OCOC)cc1

[45, 36, 93.3]

For every item in the list below, what is its measured % of calcium entry inhibition?
1. CCC(C)Oc1cc(OC)ccc1C(=O)NCCCOc1ccc(CCNC(=O)c2ccc(OC)cc2OC(C)CC)cc1 (centres unmarked)
2. CCCCOc1cc(OC)ccc1C(=O)NCCCCCCNC(=O)c1ccc(OC)cc1OCCCC
3. COc1ccc(C(=O)NCCCCCNC(=O)c2ccc(OC)c(C)c2OC)c(OC)c1C

[75, 24, 78]
